Measured values drawn from paper PMC9736855 for this set.

# assayed-system: AKT3 (Homo sapiens)
# Construct: purchased in-house DSF panel (SGC Frankfurt)
# Sequence (Q9Y243 148-479): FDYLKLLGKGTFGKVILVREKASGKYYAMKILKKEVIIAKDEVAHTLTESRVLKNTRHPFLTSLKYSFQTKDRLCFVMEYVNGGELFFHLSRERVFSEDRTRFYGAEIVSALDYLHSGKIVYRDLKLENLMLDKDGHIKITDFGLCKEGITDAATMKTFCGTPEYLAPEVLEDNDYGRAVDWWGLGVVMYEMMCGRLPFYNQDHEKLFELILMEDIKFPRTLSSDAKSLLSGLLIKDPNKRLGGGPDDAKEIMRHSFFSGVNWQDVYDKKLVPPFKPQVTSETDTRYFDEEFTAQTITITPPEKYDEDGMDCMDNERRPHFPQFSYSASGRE
# experiment-summary: DSF
# Format: binding
recorded-metric: ΔTm AKT3 (°C)

* CC(C)(C)OC(=O)Nc1ccc(CNc2nccc(Nc3cc(C(=O)OC(C)(C)C)[nH]n3)n2)cc1 [43d] | 0.5
* COC(=O)c1cc(Nc2ccnc(NCc3ccc(NC(=O)OC(C)(C)C)cc3)n2)[nH]n1 [21i] | -0.3
* CC(C)OC(=O)c1cc(Nc2ccnc(NCc3ccc(NC(=O)OC(C)(C)C)cc3)n2)n[nH]1 [42d] | 0.6
* COC(=O)c1cc(Nc2ccnc(NCCOCCNC(=O)OC(C)(C)C)n2)[nH]n1 [21d] | 0.3
